System: Human immunodeficiency virus 1
Test: Antiviral activity against Human immunodeficiency virus 1 LAI infected in human MT2 cells by MTT assay
Consider the following molecules and their measured pIC50 readings.
Interpret pIC50 as the negative base-10 log of the concentration measured in mol/L.

Guide cases for pIC50, answers given:
{"columns": ["substance-smiles", "pIC50"],
 "data": [
  ["CC(C)CN(C[C@@H](O)[C@H](Cc1ccccc1)NC(=O)O[C@@H]1C[C@@H]2[C@H](O)CO[C@@H]2C1)S(=O)(=O)c1ccc(N)cc1", 7.60],
  ["COc1ccc(S(=O)(=O)N(CC(C)C)C[C@@H](O)[C@H](Cc2ccccc2)NC(=O)O[C@@H]2C[C@@H]3[C@H](OC)CO[C@@H]3C2)cc1", 7.43]
]}

Turning to the following molecule.
*Q* Return reported pIC50; argument: COc1ccc(S(=O)(=O)N(CC(C)C)C[C@@H](O)[C@H](Cc2ccccc2)NC(=O)O[C@@H]2C[C@@H]3[C@H](C)CO[C@@H]3C2)cc1
*A* 7.60
